# Test system: NCI-H3122
# TEST: relative viability (nuclei count vs DMSO), 5 days (fraction); higher = more cells survive
# ASSAY CONTEXT: first compound 0.1 µM
Mark each entry Met if its relative viability sits below 0.7, and Not met for all others.

COMPOUND	CLASSIFICATION
O=c1cc(N2CCOCC2)oc2c(-c3cccc4c3sc3ccccc34)cccc12 + Cc1nc(Nc2ncc(C(=O)Nc3c(C)cccc3Cl)s2)cc(N2CCN(CCO)CC2)n1 [Dasatinib] (partner 0.075 µM)	Not met
O=c1cc(N2CCOCC2)oc2c(-c3cccc4c3sc3ccccc34)cccc12 + CCNC(=O)c1noc(-c2cc(C(C)C)c(O)cc2O)c1-c1ccc(CN2CCOCC2)cc1 [Luminespib] (partner 0.01 µM)	Met
CCN(CC)CCCCNc1ncc2cc(-c3cc(OC)cc(OC)c3)c(NC(=O)NC(C)(C)C)nc2n1 + CC(=O)c1c(C)c2cnc(Nc3ccc(N4CCNCC4)cn3)nc2n(C2CCCC2)c1=O [Palbociclib] (partner 0.5 µM)	Met
O=c1cc(N2CCOCC2)oc2c(-c3cccc4c3sc3ccccc34)cccc12 + COc1cc2c(Oc3ccc(NC(=O)C4(C(=O)Nc5ccc(F)cc5)CC4)cc3F)ccnc2cc1OCCCN1CCOCC1 [Foretinib] (partner 0.25 µM)	Not met
O=c1cc(N2CCOCC2)oc2c(-c3cccc4c3sc3ccccc34)cccc12 + Nc1ncn([C@H]2C[C@H](O)[C@@H](CO)O2)c(=O)n1 [Decitabine] (partner 2 µM)	Met
CCN(CC)CCCCNc1ncc2cc(-c3cc(OC)cc(OC)c3)c(NC(=O)NC(C)(C)C)nc2n1 + Nc1nc2[nH]cc(CCc3ccc(C(=O)N[C@@H](CCC(=O)O)C(=O)O)cc3)c2c(=O)[nH]1 [Pemetrexed] (partner 0.2 µM)	Met

###

# Test system: NCI-H1993
# TEST: relative viability (nuclei count vs DMSO), 5 days (fraction); higher = more cells survive
# ASSAY CONTEXT: first compound 2 µM
Reported values of relative viability for individual entries
MEASUREMENT KIND: relative viability

COMPOUND	MEASUREMENT KIND	EXPERIMENTAL VALUE
COCC1(CO)C(=O)C2CCN1CC2 (stereo not drawn) [PRIMA-1MET] + C[C@@H](Oc1cc(-c2cnn(C3CCNCC3)c2)cnc1N)c1c(Cl)ccc(F)c1Cl [Crizotinib] (partner 1 µM)	relative viability	0.738
COCC1(CO)C(=O)C2CCN1CC2 (stereo not drawn) [PRIMA-1MET] + Nc1ncn([C@H]2C[C@H](O)[C@@H](CO)O2)c(=O)n1 [Decitabine] (partner 2 µM)	relative viability	0.57
COCC1(CO)C(=O)C2CCN1CC2 (stereo not drawn) [PRIMA-1MET] + Cc1cc(Nc2cc(N3CCN(C)CC3)nc(Sc3ccc(NC(=O)C4CC4)cc3)n2)n[nH]1 [Tozasertib] (partner 0.1 µM)	relative viability	0.566

###

# Test system: SK-MES-1
# TEST: relative viability (nuclei count vs DMSO), 5 days (fraction); higher = more cells survive
# ASSAY CONTEXT: first compound 0.8 µM
Mark each entry y if its relative viability sits below 0.8, and n for all others.

COMPOUND	CLASSIFICATION
O=c1cc(-c2cccc3c2Sc2ccccc2S3)oc(N2CCOCC2)c1 + O=C(c1cc(Cc2n[nH]c(=O)c3ccccc23)ccc1F)N1CCN(C(=O)C2CC2)CC1 [Olaparib] (partner 8 µM)	y
O=c1cc(-c2cccc3c2Sc2ccccc2S3)oc(N2CCOCC2)c1 + N=C(N)NC(=N)NCCc1ccccc1 [Phenformin] (partner 250 µM)	y
O=c1cc(-c2cccc3c2Sc2ccccc2S3)oc(N2CCOCC2)c1 + CC1(C)CCC(c2ccc(Cl)cc2)=C(CN2CCN(c3ccc(C(=O)NS(=O)(=O)c4ccc(N[C@H](CCN5CCOCC5)CSc5ccccc5)c(S(=O)(=O)C(F)(F)F)c4)cc3)CC2)C1 [Navitoclax] (partner 0.5 µM)	n
COc1nc(C)cnc1NS(=O)(=O)c1cccnc1-c1ccc(-c2nnco2)cc1 [Zibotentan] + O=C(CCCCCCC(=O)Nc1ccccc1)NO [Vorinostat] (partner 1 µM)	n
O=c1cc(-c2cccc3c2Sc2ccccc2S3)oc(N2CCOCC2)c1 + C[C@@H](Oc1cc(-c2cnn(C3CCNCC3)c2)cnc1N)c1c(Cl)ccc(F)c1Cl [Crizotinib] (partner 1 µM)	n
O=c1cc(-c2cccc3c2Sc2ccccc2S3)oc(N2CCOCC2)c1 + CC(=O)c1c(C)c2cnc(Nc3ccc(N4CCNCC4)cn3)nc2n(C2CCCC2)c1=O [Palbociclib] (partner 0.5 µM)	y
O=c1cc(-c2cccc3c2Sc2ccccc2S3)oc(N2CCOCC2)c1 + CC(=O)Nc1cccc(-n2c(=O)n(C3CC3)c(=O)c3c(Nc4ccc(I)cc4F)n(C)c(=O)c(C)c32)c1 [Trametinib] (partner 0.02 µM)	y
O=c1cc(-c2cccc3c2Sc2ccccc2S3)oc(N2CCOCC2)c1 + CCNC(=O)c1noc(-c2cc(C(C)C)c(O)cc2O)c1-c1ccc(CN2CCOCC2)cc1 [Luminespib] (partner 0.01 µM)	y
O=c1cc(-c2cccc3c2Sc2ccccc2S3)oc(N2CCOCC2)c1 + Cc1nc(Nc2ncc(C(=O)Nc3c(C)cccc3Cl)s2)cc(N2CCN(CCO)CC2)n1 [Dasatinib] (partner 0.075 µM)	y
COc1nc(C)cnc1NS(=O)(=O)c1cccnc1-c1ccc(-c2nnco2)cc1 [Zibotentan] + COc1cc2c(Oc3ccc(NC(=O)C4(C(=O)Nc5ccc(F)cc5)CC4)cc3F)ccnc2cc1OCCCN1CCOCC1 [Foretinib] (partner 0.25 µM)	n

###

Reported values of relative viability for individual entries
# Tested on: SK-LU-1
# TEST: relative viability (nuclei count vs DMSO), 5 days (fraction); higher = more cells survive
# ASSAY CONTEXT: first compound 1 µM

COMPOUND	SUBJECT OF TEST	relative viability
CCN(CC)CCCCNc1ncc2cc(-c3cc(OC)cc(OC)c3)c(NC(=O)NC(C)(C)C)nc2n1 + CCNC(=O)c1noc(-c2cc(C(C)C)c(O)cc2O)c1-c1ccc(CN2CCOCC2)cc1 [Luminespib] (partner 0.01 µM)	SK-LU-1	0.168
O=c1cc(N2CCOCC2)oc2c(-c3cccc4c3sc3ccccc34)cccc12 + CC(=O)Nc1cccc(-n2c(=O)n(C3CC3)c(=O)c3c(Nc4ccc(I)cc4F)n(C)c(=O)c(C)c32)c1 [Trametinib] (partner 0.02 µM)	SK-LU-1	0.5
O=c1cc(N2CCOCC2)oc2c(-c3cccc4c3sc3ccccc34)cccc12 + C[C@]1(O)C[C@@H](c2nc(-c3ccc4ccc(-c5ccccc5)nc4c3)c3c(N)nccn32)C1 [Linsitinib] (partner 1 µM)	SK-LU-1	0.969
CCN(CC)CCCCNc1ncc2cc(-c3cc(OC)cc(OC)c3)c(NC(=O)NC(C)(C)C)nc2n1 + Cc1nc(NC(=O)N2CCC[C@H]2C(N)=O)sc1-c1ccnc(C(C)(C)C(F)(F)F)c1 [Alpelisib] (partner 2 µM)	SK-LU-1	0.65
CCN(CC)CCCCNc1ncc2cc(-c3cc(OC)cc(OC)c3)c(NC(=O)NC(C)(C)C)nc2n1 + CC1(C)CCC(c2ccc(Cl)cc2)=C(CN2CCN(c3ccc(C(=O)NS(=O)(=O)c4ccc(N[C@H](CCN5CCOCC5)CSc5ccccc5)c(S(=O)(=O)C(F)(F)F)c4)cc3)CC2)C1 [Navitoclax] (partner 0.5 µM)	SK-LU-1	0.639

###

# System: NCI-H23
# TEST: relative viability (nuclei count vs DMSO), 5 days (fraction); higher = more cells survive
# ASSAY CONTEXT: first compound 0.01 µM
MEASUREMENT KIND: relative viability

MOLECULE	MEASUREMENT KIND	EXPERIMENTAL VALUE
O=c1cc(N2CCOCC2)oc2c(-c3cccc4c3sc3ccccc34)cccc12 + COc1cc2c(Oc3ccc(NC(=O)C4(C(=O)Nc5ccc(F)cc5)CC4)cc3F)ccnc2cc1OCCCN1CCOCC1 [Foretinib] (partner 0.25 µM)	relative viability	1.02
O=c1cc(N2CCOCC2)oc2c(-c3cccc4c3sc3ccccc34)cccc12 + CC(C)C[C@H](NC(=O)[C@H](Cc1ccccc1)NC(=O)c1cnccn1)B(O)O [Bortezomib] (partner 0.002 µM)	relative viability	1.13

###

Reported values of relative viability for individual entries
# Tested on: NCI-H661
# TEST: relative viability (nuclei count vs DMSO), 5 days (fraction); higher = more cells survive
# ASSAY CONTEXT: first compound 0.253 µM

COMPOUND	relative viability
COc1nc(C)cnc1NS(=O)(=O)c1cccnc1-c1ccc(-c2nnco2)cc1 [Zibotentan] + Cc1nc(Nc2ncc(C(=O)Nc3c(C)cccc3Cl)s2)cc(N2CCN(CCO)CC2)n1 [Dasatinib] (partner 0.075 µM)	0.805
COc1nc(C)cnc1NS(=O)(=O)c1cccnc1-c1ccc(-c2nnco2)cc1 [Zibotentan] + CS(=O)(=O)N1CCN(Cc2cc3nc(-c4cccc5[nH]ncc45)nc(N4CCOCC4)c3s2)CC1 [Pictilisib] (partner 1 µM)	0.302
O=c1cc(-c2cccc3c2Sc2ccccc2S3)oc(N2CCOCC2)c1 + COc1cc2c(Oc3ccc(NC(=O)C4(C(=O)Nc5ccc(F)cc5)CC4)cc3F)ccnc2cc1OCCCN1CCOCC1 [Foretinib] (partner 0.25 µM)	1.02
O=c1cc(-c2cccc3c2Sc2ccccc2S3)oc(N2CCOCC2)c1 + Cc1nc(NC(=O)N2CCC[C@H]2C(N)=O)sc1-c1ccnc(C(C)(C)C(F)(F)F)c1 [Alpelisib] (partner 2 µM)	0.753
O=c1cc(-c2cccc3c2Sc2ccccc2S3)oc(N2CCOCC2)c1 + CCNC(=O)c1noc(-c2cc(C(C)C)c(O)cc2O)c1-c1ccc(CN2CCOCC2)cc1 [Luminespib] (partner 0.01 µM)	0.939
O=c1cc(-c2cccc3c2Sc2ccccc2S3)oc(N2CCOCC2)c1 + C[C@@H](Oc1cc(-c2cnn(C3CCNCC3)c2)cnc1N)c1c(Cl)ccc(F)c1Cl [Crizotinib] (partner 1 µM)	1.04
O=c1cc(-c2cccc3c2Sc2ccccc2S3)oc(N2CCOCC2)c1 + CC(=O)c1c(C)c2cnc(Nc3ccc(N4CCNCC4)cn3)nc2n(C2CCCC2)c1=O [Palbociclib] (partner 0.5 µM)	0.438
COc1nc(C)cnc1NS(=O)(=O)c1cccnc1-c1ccc(-c2nnco2)cc1 [Zibotentan] + Nc1nc2[nH]cc(CCc3ccc(C(=O)N[C@@H](CCC(=O)O)C(=O)O)cc3)c2c(=O)[nH]1 [Pemetrexed] (partner 0.2 µM)	0.881
O=c1cc(-c2cccc3c2Sc2ccccc2S3)oc(N2CCOCC2)c1 + CS(=O)(=O)CCNCc1ccc(-c2ccc3ncnc(Nc4ccc(OCc5cccc(F)c5)c(Cl)c4)c3c2)o1 [Lapatinib] (partner 2 µM)	0.412
